TARGET_UNDER_TEST: L-lactate dehydrogenase (Plasmodium falciparum (isolate CDC / Honduras))
PROTOCOL_DESCRIPTION: PfLDH activity inhibition – cell lysate, 3D7 strain, counter-screen for P. falciparum growth inhibition project (AID 2304);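 also: 0% = vehicle and 100% = reference inhibitor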
MEASUREMENT_SETUP: P. falciparum 3D7 crude extract, LDH APAD/NBT absorbance; at 2 µM; stronger effect = higher value
# maps each entry to its inhibition
QUANTITY_KIND: inhibition (%)

[[record]]
compound = "O=C1OC(c2ccccc2)(c2ccccn2)CN1C1CCN(Cc2cccn2-c2ccc(Cl)cc2)CC1 (centres undefined)"
quantitative_readout = -5

[[record]]
compound = "Cc1[nH]cnc1-c1cccc(NC(=O)c2cc3ccccc3s2)c1"
quantitative_readout = -5

[[record]]
compound = "O=C(Nc1ccc(C(=O)Nc2cccc(C3=NCCN3)c2)cc1)Nc1ccc(C2=NCCN2)cc1"
quantitative_readout = -4

[[record]]
compound = "CCN(CC)CCN(Cc1ccc(-c2ccc(C(F)(F)F)cc2)cc1)C(=O)Cn1c(CCc2cccc(F)c2F)c(C)c(=O)c2ccccc21"
quantitative_readout = 3

[[record]]
compound = "CN(C)c1nc2cc(-n3cnc4cc(-c5ccc(Cl)cc5)sc4c3=O)ccc2n1CCCN1CCCC1"
quantitative_readout = 2

[[record]]
compound = "CN1CCN(c2cc(NC(=O)Nc3ccc(-c4ccncc4)c(Cl)c3)ccc2Br)CC1"
quantitative_readout = 2

[[record]]
compound = "COc1ccc2nccc(N3CCN(CCNCc4ccc5c(n4)NC(=O)CS5)CC3)c2n1"
quantitative_readout = 1

[[record]]
compound = "CC(C)(C)OC(=O)N1CCN(c2ccccc2NC(=O)c2cccc(C(F)(F)F)c2Oc2ccc(F)cc2)CC1"
quantitative_readout = -8

[[record]]
compound = "CN(C)c1ccc(C=C2SC(=Nc3ccccc3)N(c3ccccc3)C2=O)cc1[N+](=O)[O-]"
quantitative_readout = 7

[[record]]
compound = "Cc1c(Oc2ccc(-n3ccnc3)cc2)ncnc1N1CCC2(CC1)CNCc1ccccc12"
quantitative_readout = -3

[[record]]
compound = "CC(C)(C)c1cc(C(=O)N2CCC(c3ccccn3)CC2)n(Cc2ccccc2)n1"
quantitative_readout = -3

[[record]]
compound = "Cc1cc(Nc2ccc3c(c2)CCC3)n2ncnc2n1"
quantitative_readout = -2

[[record]]
compound = "COc1ccc(CNc2ccnc(-n3cnc4cc(C)c(C)cc43)n2)cc1Cl"
quantitative_readout = -8

[[record]]
compound = "CCc1c[nH]c2c(N3CCCS3(=O)=O)cc(C(=O)N[C@@H](Cc3ccccc3)[C@H](O)CNC3CCCCC3)cc12"
quantitative_readout = -7

[[record]]
compound = "CCN1C(=O)N(CCC(C)C)C2(CCN(Cc3ccc(OC)cc3O)CC2)C1=O"
quantitative_readout = 4

[[record]]
compound = "CN1CCC(N2CCN(Cc3ccc(-c4ccc(-c5nc6ccccc6[nH]5)s4)cc3)CC2)CC1"
quantitative_readout = -3

[[record]]
compound = "Cc1ccc2c(NN=Cc3cccc([N+](=O)[O-])c3)cc(C)nc2c1"
quantitative_readout = 5

[[record]]
compound = "Cc1cccc2[nH]c(-c3cccc(-c4cccc(C(=O)N5CCCCC5CN5CCC(O)C5)c4)c3)nc12 (centres undefined)"
quantitative_readout = -5

[[record]]
compound = "CN1CCC(NCc2ccc(-c3ccc(S(=O)(=O)NCc4ccccc4)cc3)cc2)CC1"
quantitative_readout = 2


Reference for the values: PubChem BioAssay
